Each record here notes measured TGI.
System: U251 CNS
testDetails: NCI tumour cell line growth inhibition, 48 h
Only the number, expressed in µM, is required.

1) Cn1cc(-c2cnc(-c3cn(C)c4ccccc34)cn2)c2ccccc21: 40.2

Query: Dear colleague, I am looking for the recorded TGI of the following compound: Cc1cccc(/C=C2\CCCc3ccccc3C2=O)c1
Reply: 48.5

Query: Dear colleague, I am looking for the recorded TGI of the following compound: O=C(Nc1cccc(Oc2nnc(Cl)c3ccccc23)c1)Nc1ccc(Cl)c(C(F)(F)F)c1
Reply: 3.93

Query: Dear colleague, I am looking for the recorded TGI of the following compound: CC/C(=C(/CC)c1ccc([O-])cc1)c1ccc([O-])cc1.CC/C(=C(\CC)c1ccc([O-])cc1)c1ccc([O-])cc1.O=C([CH-]C(=O)c1ccccc1)c1ccccc1.O=C([CH-]C(=O)c1ccccc1)c1ccccc1.O=C([CH-]C(=O)c1ccccc1)c1ccccc1.O=C([CH-]C(=O)c1ccccc1)c1ccccc1.[Ti+4].[Ti+4]
Reply: 82

Query: Dear colleague, I am looking for the recorded TGI of the following compound: O=C(Nc1ccc(Cl)cc1F)c1cc(I)ccc1O
Reply: 21.2

---

Test system: HT29 colon
testDetails: NCI tumour cell line growth inhibition, 48 h
Each record here notes measured TGI.

For orientation, consider the following solved cases.
1. CC1(C)OC(C[C@]2(C#N)C[C@H](CCl)OC(C)(C)O2)C[C@@H](C[C@]2(C#N)C[C@H](CCl)OC(C)(C)O2)O1 (stereo not given in full): > 100 µM
2. COc1ccc2c(c1)C(=O)c1c-2c(Nc2ccc(C(C)=O)cc2)nc2ccccc12: > 100 µM
3. Nc1ccc(N=Nc2ccc(-c3ccc(O)cc3)cc2)c2ccc(S(=O)(=O)O)cc12: > 100 µM
4. N/C(=N\N=C\c1c[nH]c2cc(C(F)(F)F)ccc2c1=O)NO: > 10 µM

From here, focus on the item given below.
Query: Dear colleague, I am looking for the recorded TGI of the following compound: COc1ccc(OC)c(C23CCCC(C2)N(C)CC3)c1 (stereo not given)
Reply: 49.1 µM

---

System: IGROV1 ovarian
testDetails: NCI tumour cell line growth inhibition, 48 h; in the data active = GI50 below about 0.43 µM; inactive = the rest
One label from this list, please: TRUE = active, FALSE = inactive

1. C1C[S][Ge]2([S]CCO1)[S]CCOCC[S]2: FALSE
2. CC/C(=C(/CC)c1ccc([O-])cc1)c1ccc([O-])cc1.CC/C(=C(\CC)c1ccc([O-])cc1)c1ccc([O-])cc1.O=C([CH-]C(=O)c1ccccc1)c1ccccc1.O=C([CH-]C(=O)c1ccccc1)c1ccccc1.O=C([CH-]C(=O)c1ccccc1)c1ccccc1.O=C([CH-]C(=O)c1ccccc1)c1ccccc1.[Ti+4].[Ti+4]: FALSE
3. O=C(Nc1cccc(Oc2nnc(Cl)c3ccccc23)c1)Nc1ccc(Cl)c(C(F)(F)F)c1: FALSE
4. CC(=O)c1cc2c(cc1Nc1c3ccccc3nc3occ(Cl)c13)OCO2: TRUE
5. CC(=O)OCC(=O)O[C@@H]1C[C@]2(C(C)C)O[C@@]1(C)[C@@H]1CC[C@@H](C)[C@H]1[C@@H]2OC(=O)/C=C/c1ccccc1: FALSE
6. COc1ccc2c(c1)C(=O)C(=O)c1cc(O)c(OC)c(OC)c1-2: FALSE

Attention now shifts to the item below.
Query: So what was the verdict on Oc1c(CN2CCCC2)cc(COCc2ccc(Br)cc2)c2cccnc12 in this test?
Reply: FALSE

---

System: TK-10 renal
testDetails: NCI tumour cell line growth inhibition, 48 h
assayReadout: TGI

1) Cn1cc(C2=C(c3cccnc3)C(=O)NC2=O)c2ccccc21: > 25 µM

From here, focus on the item given below.
Query: Dear colleague, I am looking for the recorded TGI of the following compound: Cn1c(O)c(C(/C=C/c2ccccc2)=NCCN=C(/C=C/c2ccccc2)c2c(O)n(C)c(=O)n(C)c2=O)c(=O)n(C)c1=O
Reply: > 50 µM

---

Test system: RXF 393 renal
testDetails: NCI tumour cell line growth inhibition, 48 h
assayReadout: TGI (µM)
Only the number, expressed in µM, is required.

1) Oc1ccc2oc3c(O)c4ccccc4cc3c2c1: 16.9
2) COC(=O)Nc1nc2ccc(S(=O)(=O)n3nnc4ccccc43)cc2[nH]1: 36.1
3) CC/C=C\C/C=C\C[C@H](O)C/C=C1/C(=O)C=C[C@@H]1C/C=C\CCCC(=O)O: 8.71
4) O=C(Nc1ccc(Cl)cc1F)c1cc(I)ccc1O: 5.2
5) COC1CCC(O)C(/C=C/[N+](=O)[O-])C1 (stereo not drawn): 2.91
6) N#Cc1ccc(N2Cc3ccccc3OC3=C2C(=O)c2c(O)ccc(O)c2C3=O)cc1: 0.313
7) COc1ccc2c3c(n(Cc4ccccc4)c(=O)c2c1)-c1cc(OC)c(OC)cc1C3C (stereo not drawn): 48.8
8) CCCC[N+](CCCC)=c1ccc2nc3c(C)cc(N(CC)CC)cc3sc-2c1: 1.41

From here, focus on the item given below.
Query: Form entry - test system: RXF 393 renal; read-out: TGI; compound: COc1ccc2c(c1)C(=O)c1c-2c(Nc2ccc(C(C)=O)cc2)nc2ccccc12
Reply: 9.2

---

Each record here notes measured TGI.
Tested on: M14 melanoma
testDetails: NCI tumour cell line growth inhibition, 48 h

For orientation, consider the following solved cases.
1. O=C(CC(C(=O)c1ccco1)c1cccs1)c1cccs1 (stereo not given): > 100 µM
2. CCN1C(=O)NC(=O)C(C)(N2C(=O)c3c(F)c(F)c(F)c(F)c3C2=O)C1=O (stereo not given): 10.7 µM

Query: Dear colleague, I am looking for the recorded TGI of the following compound: Cc1n[nH]c(=O)n1/N=C/c1cccs1
Reply: > 100 µM

Query: Dear colleague, I am looking for the recorded TGI of the following compound: O=C(c1ccccc1)c1ccc(OCCOc2ccc(Nc3ccccc3)cc2)cc1
Reply: > 100 µM

Query: Dear colleague, I am looking for the recorded TGI of the following compound: COc1ccc2c(c1)[n+]([O-])c(-c1ccccc1)c(N)[n+]2[O-]
Reply: 78.9 µM

Query: Dear colleague, I am looking for the recorded TGI of the following compound: CCCCCCCCOC(CO)CO
Reply: > 100 µM

---

Test system: MDA-MB-435
testDetails: NCI tumour cell line growth inhibition, 48 h
Each record here notes measured TGI.

For orientation, consider the following solved cases.
1) COC(=O)[C@H]1C[C@H]1NC(=O)C(CC(=O)OCc1ccccc1)NC(=O)OCc1ccccc1 (stereo partly specified): 69.8 µM
2) O=S(=O)(O)c1ccc(-c2nnc(-c3ccccn3)nc2-c2ccc(S(=O)(=O)O)o2)o1: > 100 µM
3) Oc1ccc(O)c(-c2cc(-c3ccccc3)nn2-c2ccccc2)c1: > 100 µM
4) Cn1nnnc1N/N=C/c1ccccc1: > 10 µM
5) COc1cc(N/N=C/C#N)cc(OC)c1OC: > 10 µM

Query: Form entry - test system: MDA-MB-435; read-out: TGI; compound: CNC(=O)c1ccc2cc(C3(O)CCn4cncc43)ccc2c1 (stereo unspecified)
Reply: > 100 µM

Query: Form entry - test system: MDA-MB-435; read-out: TGI; compound: Cc1ccc(C)c(NC(=O)NCc2ccc(Cl)cc2)c1
Reply: > 100 µM

Query: Form entry - test system: MDA-MB-435; read-out: TGI; compound: O=C1C(c2c(O)[nH]c3ccc(S(=O)(=O)O)cc23)=Nc2ccc(Br)cc21
Reply: > 100 µM

Query: Form entry - test system: MDA-MB-435; read-out: TGI; compound: C=CC[P+](c1ccccc1)(c1ccccc1)c1ccccc1
Reply: 19.3 µM

Query: Form entry - test system: MDA-MB-435; read-out: TGI; compound: C/C(=N\N=C(\[Se])N1CCN(c2ccccn2)CC1)c1ccccn1
Reply: 20.3 µM

Query: Form entry - test system: MDA-MB-435; read-out: TGI; compound: C1=Nc2sc3c(c2C2=NCCN12)CCCC3
Reply: 41 µM

---

Tested on: CAKI-1 renal
testDetails: NCI tumour cell line growth inhibition, 48 h
assayReadout: TGI

1. O=P1(c2ccccc2)c2ccccc2CCc2ccccc21: > 100 µM
2. O=C1OCCC1C(O)C1c2ccccc2-c2ccccc21 (stereo unspecified): > 100 µM
3. COC(=O)Nc1nc2ccc(S(=O)(=O)n3nnc4ccccc43)cc2[nH]1: > 100 µM
4. Cc1nn(C(=O)c2ccc(Cl)cc2)c2c1C(c1cccc([N+](=O)[O-])c1)SC(N)=N2 (stereo unspecified): > 10 µM
5. O=c1ssc(Cl)c1Nc1c(Cl)ssc1=O: 32 µM

From here, focus on the item given below.
Query: Dear colleague, I am looking for the recorded TGI of the following compound: O=[As](O)(O)c1ccc(N=Nc2ccc([As](=O)(O)O)cc2)cc1
Reply: > 100 µM
